Target: T1, recombinant histidine-tagged human E-selectin (Sino Biologicals; 13025-H08H) (human, UniProt P16581 22-556)
T1 construct: also called recombinant human E-selectin; soluble recombinant human E-selectin
T1 sequence (looked up): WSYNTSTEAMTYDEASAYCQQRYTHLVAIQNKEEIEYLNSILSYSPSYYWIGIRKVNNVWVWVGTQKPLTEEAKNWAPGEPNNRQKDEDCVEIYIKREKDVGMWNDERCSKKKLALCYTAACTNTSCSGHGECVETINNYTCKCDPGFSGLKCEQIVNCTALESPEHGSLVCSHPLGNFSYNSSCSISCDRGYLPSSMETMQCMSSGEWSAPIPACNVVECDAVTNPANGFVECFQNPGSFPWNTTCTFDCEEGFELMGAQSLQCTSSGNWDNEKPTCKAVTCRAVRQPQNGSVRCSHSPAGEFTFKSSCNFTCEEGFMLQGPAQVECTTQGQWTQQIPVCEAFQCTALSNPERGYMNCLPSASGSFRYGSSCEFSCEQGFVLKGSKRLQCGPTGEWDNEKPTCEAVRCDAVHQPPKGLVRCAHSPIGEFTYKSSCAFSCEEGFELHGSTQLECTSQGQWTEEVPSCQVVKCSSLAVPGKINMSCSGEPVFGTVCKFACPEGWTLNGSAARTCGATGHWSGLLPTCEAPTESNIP
Experiment: competition ELISA, His-tagged E-selectin on Ni-NTA plate vs HRP-conjugated sialyl Lewis A
Each item that follows carries a reported IC50.
I only need the number, in nM, no unit after it.

Before answering, review these 4 worked examples.
optimized anti-E-selectin antibody 1448 (antibody, human IgG1, kappa, V domains shown, effector-null human IgG1, kappa) VH: EVQLVESGGGLVQPGGSLRLSCAASGYAIRSAYMHWVRQAPGKGLEWVARIDPANGNTIYVDSVKERFTISADNAKNSAYLQMNSLRAEDTAVYYCAMDLYSTSEYWGQGTLVTVSS VL: DIQMTQSPSSLSASVGDRVTITCKTSQNIERYLNWYQQKPGKAPKLLIYAASSLQSGVPSRFSGSGSGTDFTLTISSLQPEDFATYFCLQDNAWPLTFGQGTKVEIKR ... 2.96
optimized anti-E-selectin antibody 1284 (antibody, human IgG1, kappa, V domains shown, effector-null human IgG1, kappa) VH: EVQLVESGGGLVQPGGSLRLSCAASGYAIRSAYMHWVRQAPGKGLEWVARIDPANGNTIYVESVEGRFTISADNAKNSAYLQMNSLRAEDTAVYYCAMDLYSTSEYWGQGTLVTVSS VL: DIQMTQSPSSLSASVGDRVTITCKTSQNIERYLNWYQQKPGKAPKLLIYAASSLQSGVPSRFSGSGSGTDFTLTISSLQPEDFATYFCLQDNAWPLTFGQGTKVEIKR ... 3.59
anti-E-selectin antibody 0164 chimera (antibody, human IgG1, kappa, V domains shown, rat VH/VL on effector-null human IgG1 and human kappa) VH: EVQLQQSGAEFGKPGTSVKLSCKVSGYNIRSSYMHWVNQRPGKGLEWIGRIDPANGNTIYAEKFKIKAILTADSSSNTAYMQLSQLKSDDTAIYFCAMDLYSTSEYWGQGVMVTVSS VL: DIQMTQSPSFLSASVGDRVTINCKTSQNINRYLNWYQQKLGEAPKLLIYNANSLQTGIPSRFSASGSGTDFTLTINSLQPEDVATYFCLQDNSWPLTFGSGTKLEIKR ... 3.39
optimized anti-E-selectin antibody 1282 (antibody, human IgG1, kappa, V domains shown, effector-null human IgG1, kappa) VH: EVQLVESGGGLVQPGGSLRLSCAASGYAIRSAYMHWVRQAPGKGLEWVARIDPANGNTIYVDSVEGRFTISADNAKNSAYLQMNSLRAEDTAVYYCAMDLYSTSEYWGQGTLVTVSS VL: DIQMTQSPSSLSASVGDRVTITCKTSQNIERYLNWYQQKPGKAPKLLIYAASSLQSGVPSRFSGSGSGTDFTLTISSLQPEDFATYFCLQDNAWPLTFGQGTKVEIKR ... 3.39

// below: IC50 requested for another binder
Quick check: IC50 of optimized anti-E-selectin antibody 1444 (antibody, human IgG1, kappa, V domains shown, effector-null human IgG1, kappa) VH: EVQLVESGGGLVQPGGSLRLSCAASGYAIRSAYMHWVRQAPGKGLEWVARIDPANGNTIYVDSVTGRFTISADNAKNSAYLQMNSLRAEDTAVYYCAMDLYSTSEYWGQGTLVTVSS VL: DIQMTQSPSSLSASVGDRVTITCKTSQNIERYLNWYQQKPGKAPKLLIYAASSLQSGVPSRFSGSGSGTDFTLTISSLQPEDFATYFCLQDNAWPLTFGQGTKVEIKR ?
3.01
